These data points were gathered from the supplement of paper PMC7021759.

Test system: SK-N-MM (SKNMM-MYCN, doxycycline-inducible MYCN)
ASSAY PROCEDURE: area under dose-response curve (CellTiter-Glo viability normalised to plate controls) (AUC (arbitrary units)); higher = more loss of viability; extreme values may be limits of the assay
COND: MYCN induction (doxycycline): +doxycycline (MYCN induced); time after drugging: 3 days
// not satisfied strictly below 70 in area under dose-response curve; satisfied otherwise

Input line: Would you say `CC[C@@H]1C(=O)N(C)c2cnc(Nc3ccc(C(=O)NC4CCN(C)CC4)cc3OC)nc2N1C1CCCC1` shows area under dose-response curve at minimum 70?
Output line: satisfied

Input line: Would you say `COc1ncc(-c2ccc3nccc(-c4ccnnc4)c3c2)cc1NS(=O)(=O)c1ccc(F)cc1F` shows area under dose-response curve at minimum 70?
Output line: satisfied

Input line: Would you say `O=C(Nc1ccc(Nc2nccc(Nc3cc(C4CCCC4)[nH]n3)n2)cc1)Nc1cccc(C(F)(F)F)c1` shows area under dose-response curve at minimum 70?
Output line: satisfied

Input line: Would you say `CNC(=O)c1cc(Oc2ccc(NC(=O)Nc3ccc(Cl)c(C(F)(F)F)c3)cc2)ccn1` shows area under dose-response curve at minimum 70?
Output line: not satisfied

Input line: Would you say `CCN(CCCOc1ccc2c(Nc3cc(CC(=O)Nc4cccc(F)c4)[nH]n3)ncnc2c1)CCOP(=O)(O)O` shows area under dose-response curve at minimum 70?
Output line: not satisfied

Input line: Would you say `O=C(O)CCCc1ccc(N(CCCl)CCCl)cc1` shows area under dose-response curve at minimum 70?
Output line: not satisfied

Input line: Would you say `Cc1c(CN2CCC(Nc3ncnc4sc(CC(F)(F)F)cc34)CC2)ccc2c1cc(C#N)n2Cc1cn[nH]c1` shows area under dose-response curve at minimum 70?
Output line: satisfied

Input line: Would you say C[C@H]1[C@@H](O)O[C@@H]2O[C@@]3(C)CC[C@H]4[C@H](C)CC[C@@H]1[C@@]24OO3 [DIHYDROARTEMISININ] shows area under dose-response curve at minimum 70?
Output line: not satisfied

Input line: Would you say `CN1C(=O)[C@@]23C[C@]4([C@]56C[C@@]78SS[C@@](CO)(C(=O)N7[C@H]5Nc5ccccc56)N(C)C8=O)c5ccccc5N[C@@H]4N2C(=O)[C@]1(CO)SS3` shows area under dose-response curve at minimum 70?
Output line: satisfied

Input line: Would you say `Cn1cc(-c2cnn3c(N)c(Br)c([C@@H]4CCCNC4)nc23)cn1` shows area under dose-response curve at minimum 70?
Output line: not satisfied

Input line: Would you say `CC(C)c1cc(-c2n[nH]c(=O)n2-c2ccc3c(ccn3C)c2)c(O)cc1O` shows area under dose-response curve at minimum 70?
Output line: satisfied

Input line: Would you say `Cc1nc(Nc2ncc(C(=O)Nc3c(C)cccc3Cl)s2)cc(N2CCN(CCO)CC2)n1` shows area under dose-response curve at minimum 70?
Output line: not satisfied

Input line: Would you say CN[C@@H]1C[C@H]2O[C@@](C)([C@@H]1OC)n1c3ccccc3c3c4c(c5c6ccccc6n2c5c31)C(=O)N[C@H]4O [7-HYDROXYSTAUROSPORINE] shows area under dose-response curve at minimum 70?
Output line: satisfied

Input line: Would you say `CS(=O)(=O)c1ccc(-c2cnc(N)c(C(=O)Nc3ccccc3)n2)cc1` shows area under dose-response curve at minimum 70?
Output line: not satisfied

Input line: Would you say O=C(/C=C\n1cnc(-c2cc(C(F)(F)F)cc(C(F)(F)F)c2)n1)NNc1cnccn1 [SELINEXOR] shows area under dose-response curve at minimum 70?
Output line: satisfied

Input line: Would you say `COc1cc2c(Oc3ccc(NC(=O)C4(C(=O)Nc5ccc(F)cc5)CC4)cc3F)ccnc2cc1OCCCN1CCOCC1` shows area under dose-response curve at minimum 70?
Output line: satisfied

Input line: Would you say `COc1cc2c(NC3CCN(C(C)C)CC3)nc(N3CCC(F)(F)CC3)nc2cc1OCCCN1CCCC1` shows area under dose-response curve at minimum 70?
Output line: not satisfied

Input line: Would you say `Cc1ncc(CNC(=O)N(CCCl)N=O)c(N)n1` shows area under dose-response curve at minimum 70?
Output line: not satisfied

Input line: Would you say `Cc1[nH]c2ccccc2c1CCNCc1ccc(/C=C/C(=O)NO)cc1` shows area under dose-response curve at minimum 70?
Output line: satisfied

Input line: Would you say `CO[C@H]1C(=O)[C@]2(C)[C@@H](OC)C[C@H]3OC[C@@]3(OC(C)=O)[C@H]2[C@H](OC(=O)c2ccccc2)[C@]2(O)C[C@H](OC(=O)[C@H](O)[C@@H](NC(=O)OC(C)(C)C)c3ccccc3)C(C)=C1C2(C)C` shows area under dose-response curve at minimum 70?
Output line: satisfied

Input line: Would you say `Cn1cnc2c(F)c(Nc3ccc(Br)cc3F)c(C(=O)NOCCO)cc21` shows area under dose-response curve at minimum 70?
Output line: not satisfied

Input line: Would you say `CCOC(=O)c1ccc(C#Cc2ccc3c(c2)C(C)(C)CCS3)nc1` shows area under dose-response curve at minimum 70?
Output line: not satisfied

Input line: Would you say `Nc1ccn([C@@H]2O[C@H](CO)[C@@H](O)[C@@H]2O)c(=O)n1` shows area under dose-response curve at minimum 70?
Output line: not satisfied

Input line: Would you say `COc1cccc2c1C(=O)c1c(O)c3c(c(O)c1C2=O)C[C@@](O)(C(=O)CO)C[C@@H]3O[C@H]1C[C@H](N)[C@H](O)[C@H](C)O1` shows area under dose-response curve at minimum 70?
Output line: satisfied

Input line: Would you say `Cc1cn(-c2cc(NC(=O)c3ccc(C)c(Nc4nccc(-c5cccnc5)n4)c3)cc(C(F)(F)F)c2)cn1` shows area under dose-response curve at minimum 70?
Output line: not satisfied

Input line: Would you say `CC(/C=C/C(=O)NO)=C\[C@@H](C)C(=O)c1ccc(N(C)C)cc1` shows area under dose-response curve at minimum 70?
Output line: satisfied

Input line: Would you say `S=c1[nH]cnc2nc[nH]c12` shows area under dose-response curve at minimum 70?
Output line: not satisfied

Input line: Would you say `Cc1nc(=O)c2cc(CN(C)c3ccc(C(=O)N[C@@H](CCC(=O)O)C(=O)O)s3)ccc2[nH]1` shows area under dose-response curve at minimum 70?
Output line: not satisfied

Input line: Would you say `O=C(Nc1ccccc1-c1cn2c(CN3CCNCC3)csc2n1)c1cnc2ccccc2n1` shows area under dose-response curve at minimum 70?
Output line: satisfied

Input line: Would you say `Cn1c(=O)n(-c2ccc(C(C)(C)C#N)cc2)c2c3cc(-c4cnc5ccccc5c4)ccc3ncc21` shows area under dose-response curve at minimum 70?
Output line: satisfied

Input line: Would you say `O=c1[nH]c(=O)n([C@H]2C[C@H](O)[C@@H](CO)O2)cc1F` shows area under dose-response curve at minimum 70?
Output line: not satisfied

###

System: SK-N-MM (SKNMM-MYCN, doxycycline-inducible MYCN)
ASSAY PROCEDURE: area under dose-response curve (CellTiter-Glo viability normalised to plate controls) (AUC (arbitrary units)); higher = more loss of viability; extreme values may be limits of the assay
COND: MYCN induction (doxycycline): +doxycycline (MYCN induced); time after drugging: 3 days
// No strictly below 20 in area under dose-response curve; Yes otherwise

Input line: Would you say CC1(COc2ccc3c(c2)ncn3-c2ccc3cccc(N4CCC(N)CC4)c3n2)COC1 [CRENOLANIB] shows area under dose-response curve at minimum 20?
Output line: No

Input line: Would you say Clc1ccc(NN=C(c2ccccc2)c2ccccn2)nc1 [JIB-04] shows area under dose-response curve at minimum 20?
Output line: Yes

Input line: Would you say CC(C)C[C@H](NC(=O)[C@H](Cc1ccccc1)NC(=O)c1cnccn1)B(O)O [BORTEZOMIB] shows area under dose-response curve at minimum 20?
Output line: Yes

Input line: Would you say CO[C@H]1C[C@@H]2CC[C@@H](C)[C@@](O)(O2)C(=O)C(=O)N2CCCC[C@H]2C(=O)O[C@H]([C@H](C)C[C@@H]2CC[C@@H](O)[C@H](OC)C2)CC(=O)[C@H](C)/C=C(\C)[C@@H](O)[C@@H](OC)C(=O)[C@H](C)C[C@H](C)/C=C/C=C/C=C/1C [SIROLIMUS] shows area under dose-response curve at minimum 20?
Output line: No

Input line: Would you say CCCS(=O)(=O)Nc1ccc(F)c(C(=O)c2c[nH]c3ncc(-c4ccc(Cl)cc4)cc23)c1F [VEMURAFENIB] shows area under dose-response curve at minimum 20?
Output line: No

Input line: Would you say CCN(CC)CCCC(C)Nc1c2ccc(Cl)cc2nc2ccc(OC)cc12 (configuration not stated) [QUINACRINE] shows area under dose-response curve at minimum 20?
Output line: No

Input line: Would you say Oc1ccc(C2=Cc3ccc(O)cc3OC2)cc1 [IDRONOXIL] shows area under dose-response curve at minimum 20?
Output line: Yes

###

System: SK-N-MM (SKNMM-MYCN, doxycycline-inducible MYCN)
ASSAY PROCEDURE: area under dose-response curve (CellTiter-Glo viability normalised to plate controls) (AUC (arbitrary units)); higher = more loss of viability; extreme values may be limits of the assay
COND: MYCN induction (doxycycline): no doxycycline (MYCN not induced); time after drugging: 8 days
ASSAY READOUT: area under dose-response curve

Input line: Fill blank: measured area under dose-response curve of the molecule CC12CC3CC(C)(C1)CC(N)(C3)C2 [MEMANTINE] is ____.
Output line: 0

Input line: Fill blank: measured area under dose-response curve of the molecule `CCC(=O)OCN1C(=O)C=CC1=O` is ____.
Output line: 39

Input line: Fill blank: measured area under dose-response curve of the molecule `CC1(C)CCC(c2ccc(Cl)cc2)=C(CN2CCN(c3ccc(C(=O)NS(=O)(=O)c4ccc(N[C@H](CCN5CCOCC5)CSc5ccccc5)c(S(=O)(=O)C(F)(F)F)c4)cc3)CC2)C1` is ____.
Output line: 0.362

Input line: Fill blank: measured area under dose-response curve of the molecule O=C(/C=C\n1cnc(-c2cc(C(F)(F)F)cc(C(F)(F)F)c2)n1)NNc1cnccn1 [SELINEXOR] is ____.
Output line: 128

Input line: Fill blank: measured area under dose-response curve of the molecule COc1cc2nccc(Oc3ccc(NC(=O)C4(C(=O)Nc5ccc(F)cc5)CC4)cc3)c2cc1OC [CABOZANTINIB] is ____.
Output line: 0

Input line: Fill blank: measured area under dose-response curve of the molecule `C=C(c1ccc(C(=O)O)cc1)c1cc2c(cc1C)C(C)(C)CCC2(C)C` is ____.
Output line: 0

Input line: Fill blank: measured area under dose-response curve of the molecule `CC(=O)O[C@@]12CO[C@@H]1C[C@H](O)[C@@]1(C)C(=O)[C@H](O)C3=C(C)[C@@H](OC(=O)[C@H](O)[C@@H](NC(=O)OC(C)(C)C)c4ccccc4)C[C@@](O)([C@@H](OC(=O)c4ccccc4)[C@H]21)C3(C)C` is ____.
Output line: 183
